system: Cbl-B (Homo sapiens, UniProt Q13191)
Construct: MSD-Based Assay for Degradation of Cbl-B in THP-1 Cells; endogenous in cells; host or cells: THP-1 (title) / Jurkat (protocol text)
Sequence (Q13191 whole entry): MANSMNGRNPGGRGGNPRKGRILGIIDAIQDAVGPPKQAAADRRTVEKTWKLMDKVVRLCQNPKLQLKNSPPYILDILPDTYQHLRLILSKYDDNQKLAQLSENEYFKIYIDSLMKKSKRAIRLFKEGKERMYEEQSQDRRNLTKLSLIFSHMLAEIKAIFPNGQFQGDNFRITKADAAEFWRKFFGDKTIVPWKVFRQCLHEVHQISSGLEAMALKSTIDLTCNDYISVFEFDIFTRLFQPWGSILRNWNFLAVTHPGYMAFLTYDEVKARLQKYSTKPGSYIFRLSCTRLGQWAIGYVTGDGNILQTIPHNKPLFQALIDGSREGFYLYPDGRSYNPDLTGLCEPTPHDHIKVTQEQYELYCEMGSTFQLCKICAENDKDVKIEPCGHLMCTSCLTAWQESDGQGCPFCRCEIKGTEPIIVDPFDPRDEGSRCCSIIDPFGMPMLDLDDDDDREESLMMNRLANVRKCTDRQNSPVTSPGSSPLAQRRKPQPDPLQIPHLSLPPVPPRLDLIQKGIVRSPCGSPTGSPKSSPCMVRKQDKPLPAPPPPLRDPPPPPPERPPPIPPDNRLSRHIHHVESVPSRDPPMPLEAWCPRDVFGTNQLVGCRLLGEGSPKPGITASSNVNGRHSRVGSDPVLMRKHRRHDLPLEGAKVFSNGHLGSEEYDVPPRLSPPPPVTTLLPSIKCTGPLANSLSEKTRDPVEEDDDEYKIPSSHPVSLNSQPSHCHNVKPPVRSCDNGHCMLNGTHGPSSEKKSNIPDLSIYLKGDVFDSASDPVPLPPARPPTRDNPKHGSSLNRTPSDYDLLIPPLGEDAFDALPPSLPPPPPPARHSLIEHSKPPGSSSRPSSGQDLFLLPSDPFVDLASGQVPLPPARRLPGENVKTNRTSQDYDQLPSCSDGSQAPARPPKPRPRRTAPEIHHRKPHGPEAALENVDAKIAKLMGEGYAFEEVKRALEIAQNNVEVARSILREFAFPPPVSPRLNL
run.description: MSD-based assay for degradation of Cbl-B in THP-1 cells
Type: cell-based
measurement.context: Cbl-B degradation, Jurkat cells seeded (heading: THP-1 cells), 24 hours incubation, MSD readout
Recorded DC50 for the following compounds

Worked cases, DC50 given:
INSERT INTO assay_data (compound, result) VALUES
  ('Cn1cnnc1[C@@H](c1cccc(-n2cc3c(C(F)(F)F)cc(CN4CCC(OCCCN5CCN(c6ccc7c(c6)CN([C@H]6CCC(=O)NC6=O)C7=O)CC5)CC4)cn3c2=O)c1)C1CCC1 (single isomer, unassigned) [Compound 72]', '> 10000 nM'),
  ('CN(CCOCc1cc(C(F)(F)F)c2cn(-c3cccc([C@H](c4nncn4C)C4CCC4)c3)c(=O)n2c1)C(=O)c1ccc(N2CCN(c3ccc4c(c3)CN([C@@H]3CCC(=O)NC3=O)C4=O)CC2)cc1 (single isomer, unassigned) [Compound 147]', '> 10000 nM'),
  ('Cn1cnnc1[C@@H](c1cccc(-n2cc3c(C(F)(F)F)cc(CN4CCN(CCN5CCC(CN6CCN(c7ccc8c(c7)CN([C@H]7CCC(=O)NC7=O)C8=O)CC6)CC5)CC4)cn3c2=O)c1)C1CCC1 (single isomer, unassigned) [Compound 64]', '< 30 nM'),
  ('Cn1cnnc1[C@@H](c1cccc(-n2cc3c(C(F)(F)F)cc(CN4CCC(CCN5CCC(CN6CCN(c7ccc8c(c7)CN([C@H]7CCC(=O)NC7=O)C8=O)CC6)CC5)CC4)cn3c2=O)c1)C1CCC1 (single isomer, unassigned) [Compound 110]', '< 30 nM'),
  ('Cn1cnnc1[C@@H](c1cccc(-n2cc3c(C(F)(F)F)cc(CN4CCC(COCc5ccc(CN6CCN(c7ccc8c(c7)CN([C@@H]7CCC(=O)NC7=O)C8=O)CC6)cc5)CC4)cn3c2=O)c1)C1CCC1 [Compound 101]', '30 to 300 nM'),
  ('Cn1cnnc1[C@@H](c1cccc(-n2cc3c(C(F)(F)F)cc(CN4CCC(OCc5cccc(CN6CCN(c7ccc8c(c7)CN([C@H]7CCC(=O)NC7=O)C8=O)CC6)c5)CC4)cn3c2=O)c1)C1CCC1 (single isomer, unassigned) [Compound 208]', '> 10000 nM'),
  ('Cn1cnnc1CC1(c2cccc(-n3cc4c(C(F)(F)F)cc(CN5CCC(OCc6ccc(C7CCN(c8ccc9c(c8)CN([C@H]8CCC(=O)NC8=O)C9=O)CC7)cc6)CC5)cn4c3=O)c2)COC1 (single isomer, unassigned) [Compound 206]', '30 to 300 nM');

Now take the following compound into account.
In: Please report the measured DC50 for CN(CCC(=O)N1CCC(CN2CCN(c3ccc4c(c3)CN([C@@H]3CCC(=O)NC3=O)C4=O)CC2)CC1)Cc1cc(C(F)(F)F)c2cn(-c3cccc([C@H](c4nncn4C)C4CCC4)c3)c(=O)n2c1 (single isomer, unassigned) [Compound 119]
Out: > 10000 nM

---

system: Cbl-B (Homo sapiens, UniProt Q13191)
Construct: MSD-Based Assay for Degradation of Cbl-B in THP-1 Cells; endogenous in cells; host or cells: THP-1 (title) / Jurkat (protocol text)
run.description: MSD-based assay for degradation of Cbl-B in THP-1 cells
Type: cell-based
measurement.context: Cbl-B degradation, Jurkat cells seeded (heading: THP-1 cells), 24 hours incubation, MSD readout; read-out: Dmax
Protocol: MSD-Based Assay for Degradation of Cbl-B in THP-1 Cells Assay plates were then shaken at 600 rpm for 5 minutes, followed by incubation for 24 hours in the 37° C. TC incubator. […] Cell debris was then spun down at maximum speed (about 3200 g) for 30 min and lysates frozen in the −80° C. fridge. […] Plates were again washed 3× with 150 ul/well of 1×TBST, followed by addition of 1×MSD reading buffer (MSD, R92TC-2), 150 ul/well, diluted from 4× with water. […]
quantity: Dmax

Worked examples follow.
INSERT INTO assay_data (compound, system, result) VALUES
  ('Cn1cnnc1[C@@H](c1cccc(-n2cc3c(C(F)(F)F)cc(CN4CCC(O[C@@H]5CCCN(C(=O)c6ccc(N7CCN(c8ccc9c(c8)CN([C@@H]8CCC(=O)NC8=O)C9=O)CC7)cc6)C5)CC4)cn3c2=O)c1)C1CCC1 (single isomer, unassigned)', 'Cbl-B (Homo sapiens, UniProt Q13191)', '30 to 50%'),
  ('Cn1cnnc1[C@@H](c1cccc(-n2cc3c(C(F)(F)F)cc(CN4CCC(CC(=O)N5CCC(CN6CCN(c7ccc8c(c7)CN([C@@H]7CCC(=O)NC7=O)C8=O)CC6)CC5)CC4)cn3c2=O)c1)C1CCC1 (single isomer, unassigned)', 'Cbl-B (Homo sapiens, UniProt Q13191)', '50 to 70%'),
  ('CN(CCOC1CCN(Cc2cc(C(F)(F)F)c3cn(-c4cccc([C@H](c5nncn5C)C5CCC5)c4)c(=O)n3c2)CC1)C(=O)c1ccc(C2CCN(c3ccc4c(c3)CN([C@H]3CCC(=O)NC3=O)C4=O)CC2)cc1 (single isomer, unassigned)', 'Cbl-B (Homo sapiens, UniProt Q13191)', '50 to 70%');

In: Query Dmax for Cn1cnnc1[C@@H](c1cccc(-n2cc3c(C(F)(F)F)cc(CN4CCC(OC(=O)N5CCC(CC6CCN(c7ccc8c(c7)CN([C@H]7CCC(=O)NC7=O)C8=O)CC6)CC5)CC4)cn3c2=O)c1)C1CCC1 (single isomer, unassigned)
Out: > 70%

In: Provide one value: measured Dmax of CO[C@H]1C[C@](c2cccc(-n3cc4c(C(F)(F)F)cc(CN5CCC(COCc6ccc(CN7CCN(c8ccc9c(c8)CN([C@@H]8CCC(=O)NC8=O)C9=O)CC7)cc6)CC5)cn4c3=O)c2)(c2nncn2C)C1
Out: 30 to 50%

In: # return recorded Dmax for entry Cn1cnnc1CC1(c2cccc(-n3cc4c(C(F)(F)F)cc(CN5CCC(CCN6CCC(CC7CCN(c8ccc9c(c8)CN([C@H]8CCC(=O)NC8=O)C9=O)CC7)CC6)CC5)cn4c3=O)c2)COC1
Out: 30 to 50%

In: Output Dmax of Cn1cnnc1CC1(c2cccc(-n3cc4c(C(F)(F)F)cc(-c5nccn5CCOCCN5CCC(CN6CCN(c7ccc8c(c7)CN([C@@H]7CCC(=O)NC7=O)C8=O)CC6)CC5)cn4c3=O)c2)COC1
Out: < 30%

In: Output measured Dmax for this item: CN(CCN(C)C(=O)c1cc(C(F)(F)F)c2cn(-c3cccc([C@H](c4nncn4C)C4CCC4)c3)c(=O)n2c1)C(=O)c1ccc(N2CCN(c3ccc4c(c3)CN([C@H]3CCC(=O)NC3=O)C4=O)CC2)cc1 (single isomer, unassigned)
Out: 30 to 50%

---

system: Cbl-B (Homo sapiens, UniProt Q13191)
Construct: MSD-Based Assay for Degradation of Cbl-B in THP-1 Cells; endogenous in cells; host or cells: THP-1 (title) / Jurkat (protocol text)
run.description: MSD-based assay for degradation of Cbl-B in THP-1 cells
Format: cell-based
measurement.context: Cbl-B degradation, Jurkat cells seeded (heading: THP-1 cells), 24 hours incubation, MSD readout
Reported DC50 values are given for each entry in this list.

As a guide, the following entries are already answered.
INSERT INTO assay_data (compound, system, quantity, result) VALUES
  ('CO[C@H]1C[C@@](c2cccc(-n3cc4c(C(F)(F)F)cc(CN5CCC(OCCN6CCC(CN7CCN(c8ccc9c(c8)CN([C@@H]8CCC(=O)NC8=O)C9=O)CC7)CC6)CC5)cn4c3=O)c2)(c2nncn2C)C1', 'Cbl-B (Homo sapiens, UniProt Q13191)', 'DC50', '1000 to 10000 nM'),
  ('Cn1cnnc1CC1(c2cccc(-n3cc4c(C(F)(F)F)cc(CNCCOCCNc5cccc6c5C(=O)N(C5CCC(=O)NC5=O)C6=O)cn4c3=O)c2)COC1 (stereo not drawn)', 'Cbl-B (Homo sapiens, UniProt Q13191)', 'DC50', '> 10000 nM');

In: Tell me DC50 reported for Cn1cnnc1[C@@H](c1cccc(-n2cc3c(C(F)(F)F)cc(CN4CCC(OCCOCc5ccc(CN6CCN(c7ccc8c(c7)CN([C@@H]7CCC(=O)NC7=O)C8=O)CC6)cc5)CC4)cn3c2=O)c1)C1CCC1 (single isomer, unassigned)
Out: 300 to 1000 nM

---

system: Cbl-B (Homo sapiens, UniProt Q13191)
Construct: MSD-Based Assay for Degradation of Cbl-B in THP-1 Cells; endogenous in cells; host or cells: THP-1 (title) / Jurkat (protocol text)
run.description: MSD-based assay for degradation of Cbl-B in THP-1 cells
Format: cell-based
measurement.context: Cbl-B degradation, Jurkat cells seeded (heading: THP-1 cells), 24 hours incubation, MSD readout; read-out: Dmax
quantity: Dmax

Some compounds with known Dmax results, for comparison:
INSERT INTO measurements (compound, quantity, result) VALUES
  ('Cn1cnnc1[C@@H](c1cccc(-n2cc3c(C(F)(F)F)cc(CN4CCC(CCN5CCC(CN6CCN(c7ccc8c(c7)CN([C@H]7CCC(=O)NC7=O)C8=O)CC6)CC5)CC4)cn3c2=O)c1)C1CCC1 (single isomer, unassigned)', 'Dmax', '> 70%'),
  ('Cn1cnnc1CC1(c2cccc(-n3cc4c(C(F)(F)F)cc(CN5CC[C@H](OCCOCc6ccc(COCCNc7cccc8c7C(=O)N(C7CCC(=O)NC7=O)C8=O)cc6)C5)cn4c3=O)c2)COC1 (stereo partly drawn)', 'Dmax', '30 to 50%'),
  ('Cn1cnnc1[C@@H](c1cccc(-n2cc3c(C(F)(F)F)cc(CN4CCC(CN5CCC(CN6CCN(c7ccc8c(c7)CN(C7CCC(=O)NC7=O)C8=O)CC6)CC5)CC4)cn3c2=O)c1)C1CCC1 (stereo partly drawn)', 'Dmax', '50 to 70%'),
  ('Cn1cnnc1[C@@H](c1cccc(-n2cc3c(C(F)(F)F)cc(CN4CCC(OCCOCc5ccc(CNc6cccc7c6C(=O)N(C6CCC(=O)NC6=O)C7=O)cc5)CC4)cn3c2=O)c1)C1CCC1 (stereo partly drawn)', 'Dmax', '30 to 50%'),
  ('CN(CCN(C)C(=O)c1ccc(C2CCN(c3ccc4c(c3)CN([C@@H]3CCC(=O)NC3=O)C4=O)CC2)cc1)Cc1cc(C(F)(F)F)c2cn(-c3cccc([C@H](c4nncn4C)C4CCC4)c3)c(=O)n2c1 (single isomer, unassigned)', 'Dmax', '< 30%'),
  ('Cn1cnnc1[C@@H](c1cccc(-n2cc3c(C(F)(F)F)cc(CN4CCC(CN5CCN(c6ccc7c(c6)CN([C@H]6CCC(=O)NC6=O)C7=O)CC5)CC4)cn3c2=O)c1)C1CCC1 (single isomer, unassigned)', 'Dmax', '30 to 50%'),
  ('CN(C(=O)c1ccc(CN2CCN(c3ccc4c(c3)CN([C@H]3CCC(=O)NC3=O)C4=O)CC2)cc1)C1CCN(Cc2cc(C(F)(F)F)c3cn(-c4cccc([C@H](c5nncn5C)C5CCC5)c4)c(=O)n3c2)CC1', 'Dmax', '> 70%'),
  ('Cn1cnnc1[C@@H](c1cccc(-n2cc3c(C(F)(F)F)cc(CN4CCC(C(=O)N5CCC(CN6CCN(c7ccc8c(c7)CN(C7CCC(=O)NC7=O)C8=O)CC6)CC5)CC4)cn3c2=O)c1)C1CCC1 (stereo partly drawn)', 'Dmax', '30 to 50%');

Next, consider the following compound.
In: Lab note: record Dmax of CN(CCCN1CCN(Cc2cc(C(F)(F)F)c3cn(-c4cccc([C@H](c5nncn5C)C5CCC5)c4)c(=O)n3c2)CC1)C(=O)c1ccc(N2CCN(c3ccc4c(c3)CN([C@H]3CCC(=O)NC3=O)C4=O)CC2)cc1 (single isomer, unassigned) tested on Cbl-B (Homo sapiens, UniProt Q13191).
Out: > 70%
